- System: Mycosphaerella arachidis (Cercospora arachidicola)
- assay notes: Mycosphaerella arachidis liquid culture growth inhibition
- Assay type: cell-based
- measurement context: photometric, 4-5 days after application, read-out: control on Mycosphaerella arachidis
readout type: inhibition of growth at 200 ppm

1. NCC(OB1OCc2cc(Cl)ccc21)c1ccccc1 (stereo not shown) :: ≥ 80%
2. N[C@H](COB1OCc2cc(Cl)ccc21)c1ccccc1 :: ≥ 80%
3. OB1OC(c2ccccc2)c2ccccc21 (stereo not shown) [Compound 19, 3-Phenyl-3H-benzo[c][1,2]oxaborol-1-ol] :: ≥ 80%
4. NCCCOB1OCc2cc(Cl)ccc21 :: ≥ 80%
5. OB1OCc2cc(Cl)ccc21 [Compound 1, 5-Chloro-3H-benzo[c][1,2]oxaborol-1-ol] :: ≥ 80%
6. NCCOB1OCc2cc(Cl)ccc21 :: ≥ 80%
7. OB1OCc2cc(F)ccc21 [Compound 8, 5-Fluoro-3H-benzo[c][1,2]oxaborol-1-ol] :: ≥ 80%
8. Clc1ccc2c(c1)COB2OC[C@@H]1CCCN1 :: ≥ 80%
9. NCCCOB1OCc2cc(F)ccc21 :: ≥ 80%
10. NCCCCOB1OCc2cc(Cl)ccc21 :: ≥ 80%
11. CC(N)COB1OCc2cc(Cl)ccc21 (stereo not shown) :: ≥ 80%
12. NCCOB1OCc2c1ccc1ccccc21 :: ≥ 80%
13. CC(C)(N)COB1OCc2ccccc21 :: ≥ 80%
14. O=[N+]([O-])c1ccc2c(c1)B(O)OC2 [Compound 7, 6-Nitro-3H-benzo[c][1,2]oxaborol-1-ol] :: ≥ 80%
15. CC(CN)OB1OCc2cc(Cl)ccc21 (stereo not shown) :: ≥ 80%
16. NCCCCOB1OCc2cc(F)ccc21 :: ≥ 80%
17. CCC(CN)OB1OCc2cc(Cl)ccc21 (stereo not shown) :: ≥ 80%
18. CC(C)(N)COB1OCc2cc(Cl)ccc21 :: ≥ 80%
19. CC(C)(C)c1ccc2c(c1)COB2OCCN :: ≥ 80%
20. NCC(=O)OB1OCc2cc(Cl)ccc21 :: ≥ 80%
21. CNCCOB1OCc2cc(Cl)ccc21 :: ≥ 80%
22. CC(C)(C)c1ccc2c(c1)COB2O :: ≥ 80%

Sourced from patent US10130096B2
